All figures here come from the supplement of paper PMC10567573.

B1: CCDC6 (parent)
chain: ASVTIQARAEQEEEFISNTLFKKI

- Variants of: B1
- Test Summary: protein stability index of a GFP-peptide fusion (GPS, HEK-293T) (PSI 1-6); higher = more stable;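 further: lentivirally expressed fusions sorted by FACS into six bins by GFP to DsRed ratio, PSI derived from sequencing read proportions per bin multiplied by bin number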
- Experimental Context: c terminus: a fixed tail appended
Measured Quantity: protein stability index
// print number alone

I5S ... 4.24

Check the records and state protein stability index for `T4K`
3.29

Name the recorded protein stability index of the variant listed here: `Q11H`
3.37

State, in one line, measured protein stability index of `I16Y`
3.42

Specify measured protein stability index for `I5Y` .
3.73

Please give the documented protein stability index of `I5L`
3.84

Determine from records and report protein stability index for `F15N`
4.65

Look up and state reported protein stability index for `F21N`
4.42

Specify measured protein stability index for `A7N` .
3.69

# return recorded protein stability index for input `E10Y`
2.03

Return protein stability index for the following variant: `I16L`
3.94

For the variant `E12G` , give its measured protein stability index value.
2.94

Identify protein stability index associated with the variant `F21H`
3.88
